B1: library; numbered along this chain (parent)
chain: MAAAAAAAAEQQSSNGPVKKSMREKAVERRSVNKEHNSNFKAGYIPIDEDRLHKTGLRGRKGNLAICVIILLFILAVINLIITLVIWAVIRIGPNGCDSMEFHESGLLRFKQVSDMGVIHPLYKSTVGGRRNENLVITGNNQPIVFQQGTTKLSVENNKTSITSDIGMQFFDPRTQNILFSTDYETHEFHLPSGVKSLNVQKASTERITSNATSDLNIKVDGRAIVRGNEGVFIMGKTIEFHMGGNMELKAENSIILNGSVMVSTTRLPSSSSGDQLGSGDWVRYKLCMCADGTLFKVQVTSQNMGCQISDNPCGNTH

# Variants of: B1
# measurementNotes: SGCB cell-surface expression functional score (HA stain, bin4 vs bin1, normalised to synonymous) (log10 ratio); higher = more cell-surface SGCB (functional)
Rule: SGCB cell-surface expression functional score (log10) of 0.05 or more gives true (1); anything lower gives false (0).

Reference set (3 entries):
Check if SGCB cell-surface expression functional score (log10) >= 0.05 (inclusive). Item: `E24F`
false (0)

Assess whether reported SGCB cell-surface expression functional score (log10) for `N132S` sits at 0.05 or higher.
false (0)

State whether the measured SGCB cell-surface expression functional score (log10) reaches 0.05, counting equality as reaching it, for `I218L`
true (1)

Next:
hey, is SGCB cell-surface expression functional score (log10) for this one >= 0.05? `T205A`
false (0)

Identify whether the reported SGCB cell-surface expression functional score (log10) of the following variant is 0.05 or greater: `N258V`
true (1)

SGCB cell-surface expression functional score (log10) >= 0.05 for `S260P` ?
true (1)

Answer whether SGCB cell-surface expression functional score (log10) of `P121K` is greater than or equal to 0.05.
false (0)

Is it the case that `Q299I` has SGCB cell-surface expression functional score (log10) reaching or exceeding 0.05?
true (1)

Is the recorded value of SGCB cell-surface expression functional score (log10) equal to or greater than 0.05 for this variant? `M116E`
false (0)

Is SGCB cell-surface expression functional score (log10) at least 0.05? Consider `A88G`
true (1)

# bool: SGCB cell-surface expression functional score (log10) of `Y285R` >= 0.05
false (0)

Identify whether the reported SGCB cell-surface expression functional score (log10) of the following variant is 0.05 or greater: `I92T`
false (0)

Hello, I need to know if `K286E` has measured SGCB cell-surface expression functional score (log10) not below 0.05. Thanks!
false (0)

Reported SGCB cell-surface expression functional score (log10) reaches at least 0.05 for `C97G` ?
false (0)

Test whether the variant `G62M` records SGCB cell-surface expression functional score (log10) of 0.05 or higher.
true (1)

Is reported SGCB cell-surface expression functional score (log10) greater than or equal to 0.05 here: `S210Y`
false (0)

Is the recorded value of SGCB cell-surface expression functional score (log10) equal to or greater than 0.05 for this variant? `I218E`
false (0)

Item `Q176P` with SGCB cell-surface expression functional score (log10) of 0.05 or above?
false (0)

Is the recorded value of SGCB cell-surface expression functional score (log10) equal to or greater than 0.05 for this variant? `P94L`
false (0)

Determine whether this variant has SGCB cell-surface expression functional score (log10) no lower than 0.05: `K152I`
true (1)

Does the variant `F146C` have recorded SGCB cell-surface expression functional score (log10) that is 0.05 or more?
false (0)
